B1: RIPK4 (parent)
chain: RERMELLEEAKKMEMAKFRYILPV

# Variants of: B1
# assay-remarks: protein stability index of a GFP-peptide fusion (GPS, HEK-293T) (PSI 1-6); higher = more stable;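 also: lentivirally expressed fusions sorted by FACS into six bins by GFP to DsRed ratio, PSI derived from sequencing read proportions per bin multiplied by bin number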
# condition-set: c terminus: a fixed tail appended
endpoint: protein stability index

{"columns": ["mutation-key", "result-value"],
 "data": [
  ["M4H", 3.21],
  ["K11N", 3.08],
  ["R19N", 2.94],
  ["E8S", 3.06],
  ["I21N", 3.85],
  ["P23D", 2.03],
  ["K17P", 1.86],
  ["R1H", 4.5],
  ["M15R", 3.97],
  ["R3I", 2.39],
  ["L7S", 3.66],
  ["F18A", 3.16],
  ["L7F", 3.4],
  ["E8G", 2.27],
  ["Y20V", 2.59],
  ["R19D", 3.47],
  ["L7I", 3.42],
  ["Y20I", 1.93],
  ["E8L", 2.11],
  ["V24K", 3.58],
  ["F18G", 3.69],
  ["I21E", 4.11],
  ["A10H", 2.94],
  ["A16G", 3.31],
  ["E2D", 3.21],
  ["R3E", 4.38],
  ["A16P", 3.49],
  ["E2Q", 2.31],
  ["R1V", 3.83],
  ["R1G", 3.79],
  ["A10T", 2.81],
  ["R1L", 4.16],
  ["E8D", 2.86],
  ["E9K", 3.65],
  ["M15P", 4.15],
  ["A16H", 4.27],
  ["A16C", 2.54],
  ["E8Y", 2.62],
  ["L6Q", 3.08],
  ["A16Y", 3.32],
  ["E2S", 2.77],
  ["M4A", 3.99],
  ["L22M", 3.57],
  ["L22S", 3.28],
  ["R19M", 1.97],
  ["A16Q", 3.62]
]}

The reported measurements were obtained from the supplement of paper PMC10567573.
